# ASSAYED_SYSTEM: Delta-type opioid receptor (Mus musculus)
# Sequence (P32300 whole entry): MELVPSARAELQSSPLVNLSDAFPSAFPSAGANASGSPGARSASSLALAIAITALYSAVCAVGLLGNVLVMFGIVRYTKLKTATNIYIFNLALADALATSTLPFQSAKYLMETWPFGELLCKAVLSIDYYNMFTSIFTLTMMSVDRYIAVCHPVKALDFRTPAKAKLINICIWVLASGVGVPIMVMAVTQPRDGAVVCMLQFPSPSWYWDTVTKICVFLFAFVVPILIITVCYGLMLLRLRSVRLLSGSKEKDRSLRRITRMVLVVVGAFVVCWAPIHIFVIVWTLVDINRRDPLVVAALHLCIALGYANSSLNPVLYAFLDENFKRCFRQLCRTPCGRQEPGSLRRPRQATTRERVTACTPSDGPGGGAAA
# ASSAY_NAME: Displacement of [3H]NLT from Opioid receptor delta 1 of adult male mouse brain.
PROPERTY_MEASURED: Ki (nM)
A number alone suffices; assume nM.

C[C@H](NC(=O)[C@@H]1CCCN1C(=O)[C@H](Cc1ccc(O)cc1)NC(=O)CNC(=O)[C@H](Cc1ccccc1)NC(=O)[C@@H](C)NC(=O)[C@@H](N)Cc1ccc(O)cc1)C(N)=O : 1110
CC(=O)O[C@H]1[C@@H](OC(=O)[C@H](C)NC(=O)[C@@H](NC(=O)[C@@H](NC(=O)[C@H](CC(=O)O)NC(=O)[C@H](Cc2ccccc2)NC(=O)[C@@H](C)NC(=O)[C@@H](N)Cc2ccc(O)cc2)C(C)C)C(C)C)O[C@H](O)[C@H](O)[C@H]1O : 160
CC(C)[C@H](NC(=O)[C@H](CC(=O)O)NC(=O)[C@H](Cc1ccccc1)NC(=O)[C@@H](C)NC(=O)[C@@H](N)Cc1ccc(O)cc1)C(=O)N[C@H](C(=O)N[C@@H](CO)C(=O)OC[C@H]1O[C@H](O)[C@H](O)[C@@H](O)[C@@H]1O)C(C)C : 23
CC(=O)O[C@H]1[C@H](O)[C@@H](O)[C@@H](O)O[C@@H]1COC(=O)[C@H](CO)NC(=O)[C@@H](NC(=O)[C@@H](NC(=O)[C@H](CC(=O)O)NC(=O)[C@H](Cc1ccccc1)NC(=O)[C@@H](C)NC(=O)[C@@H](N)Cc1ccc(O)cc1)C(C)C)C(C)C : 28
CC(C)[C@H](NC(=O)[C@H](CC(=O)O)NC(=O)[C@H](Cc1ccccc1)NC(=O)[C@@H](C)NC(=O)[C@@H](N)Cc1ccc(O)cc1)C(=O)N[C@H](C(=O)N[C@@H](C)C(=O)O[C@H]1O[C@H](O)[C@H](O)[C@@H](O)[C@H]1O)C(C)C : 176
C[C@@H](NC(=O)[C@@H](N)Cc1ccc(O)cc1)C(=O)N[C@@H](Cc1ccccc1)C(=O)NCC(=O)N[C@@H](Cc1ccc(O)cc1)C(=O)N1C[C@H](O)C[C@H]1C(=O)N[C@@H](CCCCN)C(N)=O : 1410
CC(C)[C@H](NC(=O)[C@H](CC(=O)O)NC(=O)[C@H](Cc1ccccc1)NC(=O)[C@@H](C)NC(=O)[C@@H](N)Cc1ccc(O)cc1)C(=O)N[C@H](C(=O)N[C@@H](CO)C(N)=O)C(C)C : 30
CC(C)[C@H](NC(=O)[C@H](CC(=O)O)NC(=O)[C@H](Cc1ccccc1)NC(=O)[C@@H](C)NC(=O)[C@@H](N)Cc1ccc(O)cc1)C(=O)N[C@H](C(=O)N[C@@H](C)C(N)=O)C(C)C : 40

## Task I'd like to know its Ki. The molecule in question is C[C@H](NC(=O)[C@@H]1CCCN1C(=O)[C@H](Cc1ccc(O)cc1)NC(=O)CNC(=O)[C@H](Cc1ccccc1)NC(=O)[C@@H](C)NC(=O)[C@@H](N)Cc1ccc(O)cc1)C(=O)OC[C@H]1O[C@H](O)[C@H](O)[C@@H](O)[C@H]1O
## Result 2850

====

# ASSAY_NAME: Half-life time of enzymatic breakdown in mouse liver.
# Assay type: ADME
PROPERTY_MEASURED: half-life (h)
A number alone suffices; assume h.

Consider the reported half-life for these molecules:
C[C@@H](NC(=O)[C@@H](N)Cc1ccc(O)cc1)C(=O)N[C@@H](Cc1ccccc1)C(=O)NCC(=O)N[C@@H](Cc1ccc(O)cc1)C(=O)N1CCC[C@H]1C(=O)N[C@@H](CO)C(N)=O : 0.167
CC(C)[C@H](NC(=O)[C@H](CC(=O)O)NC(=O)[C@H](Cc1ccccc1)NC(=O)[C@@H](C)NC(=O)[C@@H](N)Cc1ccc(O)cc1)C(=O)N[C@H](C(=O)N[C@@H](CO)C(=O)OC[C@H]1O[C@H](O)[C@H](O)[C@@H](O)[C@@H]1O)C(C)C : 3
C[C@@H](NC(=O)[C@@H](N)Cc1ccc(O)cc1)C(=O)N[C@@H](Cc1ccccc1)C(=O)NCC(=O)N[C@@H](Cc1ccc(O)cc1)C(=O)N1C[C@H](O)C[C@H]1C(=O)N[C@@H](CCCCN)C(N)=O : 0.333

In the following, a different molecule is considered.
## Task I'd like to know its half-life. The molecule in question is CC(=O)O[C@H]1[C@H](O)[C@@H](O)[C@@H](O)O[C@@H]1COC(=O)[C@H](CO)NC(=O)[C@@H](NC(=O)[C@@H](NC(=O)[C@H](CC(=O)O)NC(=O)[C@H](Cc1ccccc1)NC(=O)[C@@H](C)NC(=O)[C@@H](N)Cc1ccc(O)cc1)C(C)C)C(C)C
## Result 4
